The values you see were collected from ChEMBL document CHEMBL1137619.

# assay: Bioavailability in rat at 10 mg/kg, ip
# Assay type: ADME, organism-based
# conditionParameters: in vivo
attributeMeasured: bioavailability (%)
Kindly provide the numeric value in % only, without the unit symbol.

Lab note: O=C(O)[C@H](C1CCN(C(=O)/C=C/c2cc(F)c(F)c(F)c2)CC1)N1CCC(c2c[nH]c3ccccc23)CC1 gave bioavailability of 100

* * *

# assay: Half life in rat at 10 mg/kg, po
# Assay type: ADME, organism-based
# Parameters: dose 10 mg/kg, route oral
# conditionParameters: in vivo
attributeMeasured: half-life (h)
All answers are understood in h, so give the number only.

O=C(O)[C@H](C1CCN(C(=O)/C=C/c2cc(F)c(F)c(F)c2)CC1)N1CCC(c2c[nH]c3ccccc23)CC1 has a reported half-life of 7
